test: Ex vivo biodistribution of 68Ga-labeled tracers in PC-3 tumor-bearing mice; conditions: male, NOD.Cg-Rag1^tm1Mom Il2rg^tm1Wjl/SzJ (NRG), mouse, tumor/pancreas, iv, total radioactivity, 1 h pi, blocked (100 µg blocking agent co-injected); read-out: Tumor/pancreas uptake ratio
ENDPOINT_NAME: tissue to tissue ratio at 1 h
One number for each entry.

COMPOUND	tissue to tissue ratio at 1 h
CC(C)C[C@H](NC(=O)[C@H](Cc1cnc[nH]1)N(C)C(=O)CNC(=O)[C@@H](NC(=O)[C@H](C)NC(=O)[C@H](Cc1c[nH]c2ccccc12)NC(=O)[C@H](CCC(N)=O)NC(=O)[C@@H](Cc1ccccc1)NC(=O)CN1CCC(NC(=O)CN2CCN(CC(=O)O)CCN(CC(=O)O)CCN(CC(=O)O)CC2)CC1)C(C)(C)C)C(=O)N1CC(F)(F)C[C@H]1C(N)=O [[^68Ga]Ga-LW02060, metal not drawn]	2.87

Q: Report tissue to tissue ratio at 1 h for CC(C)C[C@@H](CN1CC(F)(F)C[C@H]1C(N)=O)NC(=O)[C@H](Cc1c[nH]cn1)NC(=O)CN(C)C(=O)[C@@H](NC(=O)[C@H](C)NC(=O)[C@H](Cc1c[nH]c2ccccc12)NC(=O)[C@H](CCC(N)=O)NC(=O)[C@@H](Cc1ccccc1)NC(=O)CN1CCC(NC(=O)CN2CCN(CC(=O)O)CCN(CC(=O)O)CCN(CC(=O)O)CC2)CC1)C(C)C [[^68Ga]Ga-LW02080, metal not drawn] please.
A: 3.47

----------
assay: Ex vivo biodistribution of 177Lu-labeled ligands in PC-3 tumor-bearing mice; conditions: male, NOD.Cg-Rag1^tm1Mom Il2rg^tm1Wjl/SzJ (NRG), mouse, tumor/muscle, iv, total radioactivity, 4 h pi, n = 5; read-out: Tumor/muscle uptake ratio
ENDPOINT_NAME: tissue to tissue ratio at 4 h

MOLECULE	tissue to tissue ratio at 4 h
CC(C)C[C@@H](CN1CC(F)(F)C[C@H]1C(N)=O)NC(=O)[C@H](Cc1c[nH]cn1)NC(=O)CN(C)C(=O)[C@@H](NC(=O)[C@H](C)NC(=O)[C@H](Cc1c[nH]c2ccccc12)NC(=O)[C@H](CCC(N)=O)NC(=O)[C@@H](Cc1ccccc1)NC(=O)CN1CCC(NC(=O)CN2CCN(CC(=O)O)CCN(CC(=O)O)CCN(CC(=O)O)CC2)CC1)C(C)C [[^177Lu]Lu-LW02080, metal not drawn]	275

Could you now look at the following molecule, please?
Q: Report tissue to tissue ratio at 4 h for CC(C)C[C@H](NC(=O)[C@H](Cc1cnc[nH]1)N(C)C(=O)CNC(=O)[C@@H](NC(=O)[C@H](C)NC(=O)[C@H](Cc1c[nH]c2ccccc12)NC(=O)[C@H](CCC(N)=O)NC(=O)[C@@H](Cc1ccccc1)NC(=O)CN1CCC(NC(=O)CN2CCN(CC(=O)O)CCN(CC(=O)O)CCN(CC(=O)O)CC2)CC1)C(C)(C)C)C(=O)N1CC(F)(F)C[C@H]1C(N)=O [[^177Lu]Lu-LW02060, metal not drawn] please.
A: 196

----------
Please provide measured tissue uptake at 72 h for the entries that follow.
experiment: Ex vivo biodistribution of 177Lu-labeled ligands in PC-3 tumor-bearing mice; details: mouse, liver, intravenous, 72 h pi, n = 5; read-out: Liver uptake
Numbers only, in %ID/g.

COMPOUND	UNIT_ABBREV	tissue uptake at 72 h
CC(C)C[C@H](NC(=O)[C@H](Cc1cnc[nH]1)N(C)C(=O)CNC(=O)[C@@H](NC(=O)[C@H](C)NC(=O)[C@H](Cc1c[nH]c2ccccc12)NC(=O)[C@H](CCC(N)=O)NC(=O)[C@@H](Cc1ccccc1)NC(=O)CN1CCC(NC(=O)CN2CCN(CC(=O)O)CCN(CC(=O)O)CCN(CC(=O)O)CC2)CC1)C(C)(C)C)C(=O)N1CC(F)(F)C[C@H]1C(N)=O [[^177Lu]Lu-LW02060, metal not drawn]	%ID/g	0.06

Could you now look at the following compound, please?
Q: Report tissue uptake at 72 h for CC(C)C[C@@H](CN1CC(F)(F)C[C@H]1C(N)=O)NC(=O)[C@H](Cc1c[nH]cn1)NC(=O)CN(C)C(=O)[C@@H](NC(=O)[C@H](C)NC(=O)[C@H](Cc1c[nH]c2ccccc12)NC(=O)[C@H](CCC(N)=O)NC(=O)[C@@H](Cc1ccccc1)NC(=O)CN1CCC(NC(=O)CN2CCN(CC(=O)O)CCN(CC(=O)O)CCN(CC(=O)O)CC2)CC1)C(C)C [[^177Lu]Lu-LW02080, metal not drawn] please.
A: 0.04

----------
assay: Ex vivo biodistribution of 177Lu-labeled ligands in PC-3 tumor-bearing mice; conditions: mouse, kidneys, intravenous, 1 h pi, n = 5; read-out: Kidneys uptake
ENDPOINT_NAME: tissue uptake at 1 h (%ID/g)
One number for each entry, in %ID/g.

COMPOUND	tissue uptake at 1 h, %ID/g
CC(C)C[C@H](NC(=O)[C@H](Cc1cnc[nH]1)N(C)C(=O)CNC(=O)[C@@H](NC(=O)[C@H](C)NC(=O)[C@H](Cc1c[nH]c2ccccc12)NC(=O)[C@H](CCC(N)=O)NC(=O)[C@@H](Cc1ccccc1)NC(=O)CN1CCC(NC(=O)CN2CCN(CC(=O)O)CCN(CC(=O)O)CCN(CC(=O)O)CC2)CC1)C(C)(C)C)C(=O)N1CC(F)(F)C[C@H]1C(N)=O [[^177Lu]Lu-LW02060, metal not drawn]	3.62

Could you now look at the following compound, please?
Q: Report tissue uptake at 1 h for CC(C)C[C@@H](CN1CC(F)(F)C[C@H]1C(N)=O)NC(=O)[C@H](Cc1c[nH]cn1)NC(=O)CN(C)C(=O)[C@@H](NC(=O)[C@H](C)NC(=O)[C@H](Cc1c[nH]c2ccccc12)NC(=O)[C@H](CCC(N)=O)NC(=O)[C@@H](Cc1ccccc1)NC(=O)CN1CCC(NC(=O)CN2CCN(CC(=O)O)CCN(CC(=O)O)CCN(CC(=O)O)CC2)CC1)C(C)C [[^177Lu]Lu-LW02080, metal not drawn] please.
A: 2.65

----------
assay: Ex vivo biodistribution of 68Ga-labeled tracers in PC-3 tumor-bearing mice; conditions: mouse, muscle, intravenous, 100 ug; 1 h pi, blocked (100 µg blocking agent co-injected); read-out: Muscle uptake
Please provide measured tissue uptake at 1 h for the entries that follow.
Show the value, then the unit it is measured in.

COMPOUND	ENDPOINT_NAME	RESULT
CC(C)C[C@@H](CN1CC(F)(F)C[C@H]1C(N)=O)NC(=O)[C@H](Cc1c[nH]cn1)NC(=O)CN(C)C(=O)[C@@H](NC(=O)[C@H](C)NC(=O)[C@H](Cc1c[nH]c2ccccc12)NC(=O)[C@H](CCC(N)=O)NC(=O)[C@@H](Cc1ccccc1)NC(=O)CN1CCC(NC(=O)CN2CCN(CC(=O)O)CCN(CC(=O)O)CCN(CC(=O)O)CC2)CC1)C(C)C [[^68Ga]Ga-LW02080, metal not drawn]	tissue uptake at 1 h	0.53 %ID/g

Could you now look at the following compound, please?
Q: Report tissue uptake at 1 h for CC(C)C[C@H](NC(=O)[C@H](Cc1cnc[nH]1)N(C)C(=O)CNC(=O)[C@@H](NC(=O)[C@H](C)NC(=O)[C@H](Cc1c[nH]c2ccccc12)NC(=O)[C@H](CCC(N)=O)NC(=O)[C@@H](Cc1ccccc1)NC(=O)CN1CCC(NC(=O)CN2CCN(CC(=O)O)CCN(CC(=O)O)CCN(CC(=O)O)CC2)CC1)C(C)(C)C)C(=O)N1CC(F)(F)C[C@H]1C(N)=O [[^68Ga]Ga-LW02060, metal not drawn] please.
A: 0.35 %ID/g

----------
experiment: Ex vivo biodistribution of 177Lu-labeled ligands in PC-3 tumor-bearing mice; conditions: male, NOD.Cg-Rag1^tm1Mom Il2rg^tm1Wjl/SzJ (NRG), mouse, tumor/pancreas, iv, total radioactivity, 4 h pi, n = 5; read-out: Tumor/pancreas uptake ratio
Please provide measured tissue to tissue ratio at 4 h for the entries that follow.

MOLECULE	tissue to tissue ratio at 4 h
CC(C)C[C@H](NC(=O)[C@H](Cc1cnc[nH]1)N(C)C(=O)CNC(=O)[C@@H](NC(=O)[C@H](C)NC(=O)[C@H](Cc1c[nH]c2ccccc12)NC(=O)[C@H](CCC(N)=O)NC(=O)[C@@H](Cc1ccccc1)NC(=O)CN1CCC(NC(=O)CN2CCN(CC(=O)O)CCN(CC(=O)O)CCN(CC(=O)O)CC2)CC1)C(C)(C)C)C(=O)N1CC(F)(F)C[C@H]1C(N)=O [[^177Lu]Lu-LW02060, metal not drawn]	4.91

Q: Report tissue to tissue ratio at 4 h for CC(C)C[C@@H](CN1CC(F)(F)C[C@H]1C(N)=O)NC(=O)[C@H](Cc1c[nH]cn1)NC(=O)CN(C)C(=O)[C@@H](NC(=O)[C@H](C)NC(=O)[C@H](Cc1c[nH]c2ccccc12)NC(=O)[C@H](CCC(N)=O)NC(=O)[C@@H](Cc1ccccc1)NC(=O)CN1CCC(NC(=O)CN2CCN(CC(=O)O)CCN(CC(=O)O)CCN(CC(=O)O)CC2)CC1)C(C)C [[^177Lu]Lu-LW02080, metal not drawn] please.
A: 48.1
